# ASSAYED SYSTEM: T1, human iRhom2 (inactive rhomboid protein 2, isoform 1), endogenously expressed on human cells (human, UniProt Q6PJF5 1-856)
# T1 sequence: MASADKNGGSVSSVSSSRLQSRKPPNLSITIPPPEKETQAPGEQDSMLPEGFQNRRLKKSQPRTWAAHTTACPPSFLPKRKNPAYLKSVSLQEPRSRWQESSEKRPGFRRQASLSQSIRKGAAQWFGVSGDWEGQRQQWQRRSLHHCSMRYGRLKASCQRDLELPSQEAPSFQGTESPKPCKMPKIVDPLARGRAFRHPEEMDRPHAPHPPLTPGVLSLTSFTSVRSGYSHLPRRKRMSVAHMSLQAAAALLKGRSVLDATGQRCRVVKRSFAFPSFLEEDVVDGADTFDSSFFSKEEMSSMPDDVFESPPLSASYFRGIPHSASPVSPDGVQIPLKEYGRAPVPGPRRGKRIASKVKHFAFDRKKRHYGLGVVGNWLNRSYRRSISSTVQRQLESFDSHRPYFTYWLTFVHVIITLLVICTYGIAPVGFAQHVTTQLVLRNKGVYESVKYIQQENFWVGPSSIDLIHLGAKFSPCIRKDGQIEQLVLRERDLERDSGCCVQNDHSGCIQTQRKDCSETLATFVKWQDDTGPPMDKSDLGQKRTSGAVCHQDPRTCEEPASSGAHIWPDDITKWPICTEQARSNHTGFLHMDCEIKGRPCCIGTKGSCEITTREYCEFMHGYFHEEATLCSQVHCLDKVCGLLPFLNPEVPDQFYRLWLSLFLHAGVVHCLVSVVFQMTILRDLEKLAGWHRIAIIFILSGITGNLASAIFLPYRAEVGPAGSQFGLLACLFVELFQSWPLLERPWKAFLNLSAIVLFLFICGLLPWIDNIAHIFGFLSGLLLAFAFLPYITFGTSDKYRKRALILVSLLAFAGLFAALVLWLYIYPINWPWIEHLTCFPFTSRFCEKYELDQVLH
# ASSAY REMARKS: cell-based or functional assay
Catalogue of inhibition of PMA-induced release of TNFα from U-937 cells, 1 µg/ml values
EXPERIMENTAL READOUT: inhibition of PMA-induced release of TNFα from U-937 cells, 1 µg/ml

BINDER	RECORDED RESULT
antibody 42 (antibody, V domains shown, Mouse IgG, kappa light chain; also called clone #42; m42) VH: QVTLKESGPGILQPSQTLSLTCSLSGFSLSTFGRGVGWIRQPSGKGLEWLAHIWWDDEKYYNPALKSRLTISKDTSKNQVFLRIANVDTADTATYYCARIQNYGSNYWYFDVWGTGTTVTVSS VL: LIVLTQSPAIMSASPGEKVTMTCGATSRISYMFWYQQKPGSSPRVLIYDTSNLASGVPVRFSGSGSGTSYSLTISRVEAEDVATYYCQQWNSYPLTFGAGTKLELK	94.5 % inhibition
antibody 16 (antibody, V domains shown, Mouse IgG, kappa light chain; also called clone #16; m16) VH: QVTLKESGPGILQPSQTLSLTCSFSGFSLSTFALGVGWIRQPSGRGLEWLAHIWWDDDKYYNPALKSRLTISKDTSKNHVFLKIANVDTADTATYYCARITTYYYGMDYWGQGTSVTVSS VL: DIVLSQSPATLSVTPGDSVSLFCRASQSIGNHLHWYQQESHASPRLLIKYASQSISGIPSRFSGSGSGTDFTLSINSVETEDFGMYFCQQSYNWPLTFGAGTKLELK	91.6 % inhibition
antibody 44 (antibody, V domains shown, Mouse IgG, kappa light chain; also called clone #44; m44) VH: QVTLKESGPGILQPSQTLSLTCSFSGFSLSTFGMGVGWIRQPSEKGLEWLAHIWWDDDKYYNPALKSRLTISKDTSKNQIFLKITNVDTAETATYYCSRIGNYGSNYWYFDVWGTGTTVTVSS VL: QIVLTQSPAVMSASPGEKVTMTCTASSSVYYMYWYQQTPGSSPRLLIYDTSNLASGVPVRFSGSGSGTSYSLTISRMEAEDAATYYCQQWNTYPLTFGAGTKLELK	76.5 % inhibition

Sourced from patent US20240174744A1
